log10(dTm) listing for selected compounds.
molecular target: ~100 representative kinases (Homo sapiens, UniProt Q9H2G2); construct: Recombinant protein kinase domains with a concentration of 2 μM; assay: DSF 100 kinase selectivity screen; format: binding; conditions: Protein SLK; DSF; average of three replicates;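 also: compound tested at 20 µM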
Sequence (Q9H2G2 whole entry, the tested form may be a part): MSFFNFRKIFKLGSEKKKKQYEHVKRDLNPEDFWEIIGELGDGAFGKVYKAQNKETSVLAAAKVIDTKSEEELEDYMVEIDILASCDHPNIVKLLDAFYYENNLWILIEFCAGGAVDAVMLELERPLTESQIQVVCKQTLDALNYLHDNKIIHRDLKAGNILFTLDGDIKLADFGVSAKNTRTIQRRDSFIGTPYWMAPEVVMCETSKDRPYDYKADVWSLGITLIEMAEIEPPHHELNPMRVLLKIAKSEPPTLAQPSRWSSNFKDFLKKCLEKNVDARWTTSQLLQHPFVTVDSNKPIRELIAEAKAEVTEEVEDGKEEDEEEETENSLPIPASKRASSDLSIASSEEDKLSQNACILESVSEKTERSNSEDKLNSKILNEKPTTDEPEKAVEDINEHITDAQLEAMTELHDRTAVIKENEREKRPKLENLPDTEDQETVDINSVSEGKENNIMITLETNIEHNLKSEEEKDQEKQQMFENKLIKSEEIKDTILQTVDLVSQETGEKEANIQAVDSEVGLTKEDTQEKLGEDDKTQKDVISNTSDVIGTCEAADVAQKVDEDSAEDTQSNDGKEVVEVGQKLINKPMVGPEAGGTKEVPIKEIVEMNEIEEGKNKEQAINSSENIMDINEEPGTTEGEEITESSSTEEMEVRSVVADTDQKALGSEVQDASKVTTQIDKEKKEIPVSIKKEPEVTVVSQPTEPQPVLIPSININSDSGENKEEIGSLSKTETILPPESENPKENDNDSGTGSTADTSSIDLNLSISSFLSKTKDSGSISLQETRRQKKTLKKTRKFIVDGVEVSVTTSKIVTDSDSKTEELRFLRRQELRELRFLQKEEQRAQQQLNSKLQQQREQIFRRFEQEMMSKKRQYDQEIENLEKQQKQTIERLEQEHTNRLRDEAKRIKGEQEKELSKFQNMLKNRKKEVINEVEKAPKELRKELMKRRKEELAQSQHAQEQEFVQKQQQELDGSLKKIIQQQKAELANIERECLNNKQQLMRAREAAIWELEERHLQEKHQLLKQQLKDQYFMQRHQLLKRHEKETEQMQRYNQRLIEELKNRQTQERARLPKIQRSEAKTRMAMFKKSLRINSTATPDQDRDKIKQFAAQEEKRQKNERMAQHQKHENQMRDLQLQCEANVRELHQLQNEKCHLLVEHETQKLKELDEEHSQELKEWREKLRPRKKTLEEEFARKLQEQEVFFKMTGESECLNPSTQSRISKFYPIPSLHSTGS
Short version: log10 scale, dTm, K.

compound	measured_value
O=C(Nc1cccc(-c2c[nH]c3ncnc(N4CCOCC4)c23)c1)C1(C(=O)Nc2ccc(F)cc2F)CC1 [Compound 23]	0.65
O=C(Nc1cccc(-c2c[nH]c3ncnc(N4CCOCC4)c23)c1)C1(C(=O)Nc2ccc(F)c(Br)c2)CC1 [Compound 19]	0.91
CCNc1nc(Nc2cc(F)c(C(=O)N3CCOCC3)cc2OC)ncc1C(F)(F)F [GNE-7915]	-0.21
Cc1cc(NC(=O)C2(C(=O)Nc3ccc(F)cc3)CC2)cc(-c2c[nH]c3ncnc(N4CCOCC4)c23)c1 [Compound 6]	0.67
CC(=O)N1CCN(c2nc(Cl)nc3[nH]cc(-c4cccc(NC(=O)Nc5cc(C(C)(C)C)nn5-c5ccc(C)cc5)c4)c23)CC1 [Compound 31]	0.97
Cc1ccc(-n2nc(C(C)(C)C)cc2NC(=O)Nc2cccc(-c3c[nH]c4ncnc(N5CCOCC5)c34)c2)cc1 [Compound 29]	1.14

Note: attention shifts to another entry.
Briefly, log10(dTm) measured for O=C(Nc1cccc(-c2c[nH]c3ncnc(N4CCOCC4)c23)c1)C1(C(=O)Nc2cccc3c2CCC3)CC1 [Compound 11] : -0.12

----------
target: ~100 representative kinases (Homo sapiens); construct: Recombinant protein kinase domains with a concentration of 2 μM; experiment: DSF 100 kinase selectivity screen; format: binding; conditions: Protein SRPK1; DSF; average of three replicates;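 also: compound tested at 20 µM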
observable: dTm
Answer with the figure and its unit, nothing else.

compound	target_system	observable	measured_value
CC(=O)N1CCN(c2nc(Cl)nc3[nH]cc(-c4cccc(NC(=O)Nc5cc(C(C)(C)C)nn5-c5ccc(C)cc5)c4)c23)CC1	~100 representative kinases (Homo sapiens)	dTm	7.78 K
C[C@@H]1CN(c2cc(-c3n[nH]c4ccc(OC5(C)CC5)cc34)ncn2)C[C@H](C)O1	~100 representative kinases (Homo sapiens)	dTm	0.11 K
Cc1ccc(C(=O)Nc2ccc(CN3CCN(C)CC3)c(C(F)(F)F)c2)cc1C#Cc1cnc2[nH]ncc2c1 [GZD-824, reference compound]	~100 representative kinases (Homo sapiens)	dTm	13.60 K

Note: attention shifts to another entry.
Briefly, dTm measured for CCSc1nc(NC)c2c(-c3cccc(NC(=O)Nc4cc(C(C)(C)C)nn4-c4ccc(C)cc4)c3)c[nH]c2n1 : 0.80 K

----------
target: ~100 representative kinases (Homo sapiens, UniProt P49137); construct: Recombinant protein kinase domains with a concentration of 2 μM; test: DSF 100 kinase selectivity screen; type: binding; settings: protein MAPKAPK2; average of three replicates;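 also: compound tested at 20 µM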
Sequence (P49137 whole entry, the tested form may be a part): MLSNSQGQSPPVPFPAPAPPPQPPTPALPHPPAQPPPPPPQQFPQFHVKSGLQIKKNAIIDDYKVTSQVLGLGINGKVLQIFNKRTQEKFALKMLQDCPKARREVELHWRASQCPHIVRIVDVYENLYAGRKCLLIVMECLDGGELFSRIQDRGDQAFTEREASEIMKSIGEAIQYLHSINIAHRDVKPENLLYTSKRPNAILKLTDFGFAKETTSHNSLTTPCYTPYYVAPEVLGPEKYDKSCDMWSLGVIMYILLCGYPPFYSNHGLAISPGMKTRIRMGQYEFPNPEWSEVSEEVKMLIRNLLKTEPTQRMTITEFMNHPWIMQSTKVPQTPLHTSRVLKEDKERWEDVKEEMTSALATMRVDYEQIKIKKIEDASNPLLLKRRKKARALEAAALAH
# label = true if dTm >= -0.1 K else false

Please review the following examples before continuing.
molecule	target_system	class_name
O=C(Nc1ccccc1)C1(C(=O)Nc2cccc(-c3c[nH]c4ncnc(N5CCOCC5)c34)c2)CC1 [Compound 12]	~100 representative kinases (Homo sapiens, UniProt P49137)	false
CC(C)(C)c1cccc(NC(=O)C2(C(=O)Nc3cccc(-c4c[nH]c5ncnc(N6CCOCC6)c45)c3)CC2)c1 [Compound 22]	~100 representative kinases (Homo sapiens, UniProt P49137)	false
COc1cc(C(=O)N2CCOCC2)c(F)cc1Nc1nc(N(C)C)c2c(Cl)c[nH]c2n1 [Compound 36]	~100 representative kinases (Homo sapiens, UniProt P49137)	true
CCc1ccc(NC(=O)C2(C(=O)Nc3cccc(-c4c[nH]c5ncnc(N6CCOCC6)c45)c3)CC2)cc1 [Compound 15]	~100 representative kinases (Homo sapiens, UniProt P49137)	true
Cc1ccc(-n2nc(C(C)(C)C)cc2NC(=O)Nc2cccc(-c3c[nH]c4ncnc(N5CCOCC5)c34)c2)cc1 [Compound 29]	~100 representative kinases (Homo sapiens, UniProt P49137)	false

Decide: dTm of O=C(Nc1ccc(F)cc1)C1(C(=O)Nc2cccc(-c3c[nH]c4ncnc(N5CCOCC5)c34)c2)CC1 [Compound 2] >= -0.1 K? false

Decide: dTm of CNC(=O)c1cc(Oc2ccc(NC(=O)Nc3cc(C(C)(C)C)nn3-c3ccc4ncccc4c3)c(F)c2)ccn1 [Rebastinib, reference compound] >= -0.1 K? true

Decide: dTm of Cc1cc(NC(=O)C2(C(=O)Nc3cccc(-c4c[nH]c5ncnc(N6CCOCC6)c45)c3)CC2)ccc1F [Compound 20] >= -0.1 K? false

Decide: dTm of C[C@@H]1CN(c2cc(-c3n[nH]c4ccc(OC5(C)CC5)cc34)ncn2)C[C@H](C)O1 [MLi2] >= -0.1 K? false

Decide: dTm of CCSc1nc(NC)c2c(-c3cccc(NC(=O)Nc4cc(C(C)(C)C)nn4-c4ccc(C)cc4)c3)c[nH]c2n1 [Compound 32] >= -0.1 K? true
